Please provide measured pKd for the entries that follow.
biological target: DLG1_2, Q12959; test: holdup assay; parameters: key: below the threshold = too weak to quantify, mostly under pKd 3.1 to 4; conditions: plain residues with an end cap or a label only (N-terminal biotin on a linker: ado-ado)
Sequence (Q12959 314-412): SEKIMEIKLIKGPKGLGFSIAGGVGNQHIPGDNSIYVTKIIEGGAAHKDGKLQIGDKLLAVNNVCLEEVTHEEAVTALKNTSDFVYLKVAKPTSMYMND
Numbers only.

Here's what some known entries look like.
EVEEFPETSV [TRPV3, Q8NET8] : 4.51
AKPSRISTVV [IQSEC2, Q5JU85] : 5.52

Dear reader, for each entry below, please note its pKd.
1. RHGSCVETSL [TMEM151B, Q8IW70]
2. LPHPHSTTRV [NLGN2, Q8NFZ4]
3. RRRESYSTTV [EVI5, O60447]
4. SGSLKLMTTV [DACT1, Q9NYF0]
5. PRAEAEDSFL [PDGFRB, P09619]

[4.88, 4.07, 5.57, 5.54, 3.57]

Reference source for all entries: paper PMC9482650
